# target-desc: HCV NS3 protease (Hepatitis C virus genotype 1b)
# Construct: an NS3/4A complex comprising the NS3 protease domain
# Sequence (P26663 1027-1208, other chains not shown): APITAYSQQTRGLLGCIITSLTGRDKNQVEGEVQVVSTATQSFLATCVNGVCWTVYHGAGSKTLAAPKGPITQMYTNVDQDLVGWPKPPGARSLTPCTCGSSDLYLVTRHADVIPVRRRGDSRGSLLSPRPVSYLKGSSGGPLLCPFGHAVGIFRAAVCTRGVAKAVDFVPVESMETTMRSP
# protocol-details: Inhibition of NS3 protease (HPLC cleavage assay, NS3/4A complex with Pep4AK, substrate peptide 4AB)
# Format: biochemical
# stated-conditions: Table 2 tetrapeptides and tripeptides; read-out: IC50
Hi there, I'd appreciate the recorded IC50 for every entry that follows.
Answers are plain numbers, in µM.

Use the examples below as a reference point.
>  <compound>
CCC(C)[C@H](NC(=O)OCc1ccccc1)C(=O)N[C@@H](C)C(=O)NC(CC(F)F)C(=O)C(=O)O (some centres unmarked)

>  <target-desc>
HCV NS3 protease (Hepatitis C virus genotype 1b)

>  <IC50 [µM]>
16

$$$$
>  <compound>
CC(C)C[C@H](NC(=O)[C@H](CCC(=O)O)NC(=O)OC(C)(C)C)C(=O)NC(CC(F)F)C(=O)C(=O)O (some centres unmarked)

>  <target-desc>
HCV NS3 protease (Hepatitis C virus genotype 1b)

>  <IC50 [µM]>
0.33

$$$$
>  <compound>
CCC(C)[C@H](NC(=O)NCc1cc(C(F)(F)F)cc(C(F)(F)F)c1)C(=O)N[C@@H](CC(C)C)C(=O)NC(CC(F)F)C(=O)C(=O)O (some centres unmarked)

>  <target-desc>
HCV NS3 protease (Hepatitis C virus genotype 1b)

>  <IC50 [µM]>
39

$$$$

Hello, I would appreciate it if you could give IC50 for each entry below.
1. CC(C)C[C@H](NC(=O)[C@H](CC(=O)OCc1ccccc1)NC(=O)OC(C)(C)C)C(=O)NC(CC(F)F)C(=O)C(=O)O (some centres unmarked)
2. CC(=O)N[C@H]1Cc2cccc(c2)Oc2ccc(cc2)C[C@@H](C(=O)NC(CC(F)F)C(=O)C(=O)O)NC(=O)[C@H](CCC(=O)O)NC1=O (some centres unmarked)
3. CCC(C)[C@H](NC(=O)OCc1ccccc1)C(=O)N[C@@H](CC)C(=O)NC(CC(F)F)C(=O)C(=O)O (some centres unmarked)
4. CCC(C)[C@H](NC(=O)OC(C)(C)C)C(=O)N[C@@H](CC(C)C)C(=O)NC(CC(F)F)C(=O)C(=O)O (some centres unmarked)
5. CC(C)C[C@H](NC(=O)[C@H](CCC(N)=O)NC(=O)OC(C)(C)C)C(=O)NC(CC(F)F)C(=O)C(=O)O (some centres unmarked)
6. CCC(C)[C@H](NC(=O)OCc1ccccc1)C(=O)N[C@H](C(=O)NC(CC(F)F)C(=O)C(=O)O)C(C)C (some centres unmarked)
7. CC(=O)N[C@H](C(=O)N[C@@H](CCC(=O)O)C(=O)N[C@@H](CC1CCCCC1)C(=O)NC(CC(F)F)C(=O)C(=O)NCc1ccccc1)C(c1ccccc1)c1ccccc1 (some centres unmarked)
8. CC(C)(C)OC(=O)N[C@@H](CCC(=O)O)C(=O)N[C@@H](CC(F)F)C(=O)NC(CC(F)F)C(=O)C(=O)O (some centres unmarked)

1: 3.5; 2: 47; 3: 3; 4: 1; 5: 2.1; 6: 16; 7: 11.4; 8: 0.3

Hello, I would appreciate it if you could give IC50 for each entry below.
1. CC(C)C[C@H](NC(=O)[C@@H](NC(=O)OC(C)(C)C)C(C)C)C(=O)NC(CC(F)F)C(=O)C(=O)O (some centres unmarked)
2. CC(=O)N[C@H](C(=O)N[C@@H](CCC(=O)O)C(=O)N[C@@H](CC1CCCCC1)C(=O)NC(CC(F)F)C(=O)C(=O)O)C(c1ccccc1)c1ccccc1 (some centres unmarked)
3. CCC(C)[C@H](NC(=O)OCc1ccc(C(=O)OC)cc1)C(=O)N[C@@H](CC(C)C)C(=O)NC(CC(F)F)C(=O)C(=O)O (some centres unmarked)
4. CCC(C)[C@H](NC(=O)OCc1ccccc1)C(=O)N[C@@H](CCC(=O)O)C(=O)NC(CC(F)F)C(=O)C(=O)O (some centres unmarked)
5. CCC(C)[C@H](NC(=O)OCC1c2ccccc2-c2ccccc21)C(=O)N[C@@H](CC(C)C)C(=O)NC(CC(F)F)C(=O)C(=O)O (some centres unmarked)
6. CC(C)CC[C@H](NC(=O)OC(C)(C)C)C(=O)N[C@@H](CC(C)C)C(=O)NC(CC(F)F)C(=O)C(=O)O (some centres unmarked)
7. CCC(C)[C@H](NC(=O)OCc1ccc(C(=O)O)cc1)C(=O)N[C@@H](CC(C)C)C(=O)NC(CC(F)F)C(=O)C(=O)O (some centres unmarked)
8. CC(C)C[C@H](NC(=O)[C@@H](NC(=O)OC(C)(C)C)C1CCCC1)C(=O)NC(CC(F)F)C(=O)C(=O)O (some centres unmarked)

0.5
10
1.7
9.3
7.8
1.6
0.44
0.4

Hello, I would appreciate it if you could give IC50 for each entry below.
1. CCC(C)[C@H](NC(=O)NCc1ccccc1)C(=O)N[C@@H](CC(C)C)C(=O)NC(CC(F)F)C(=O)C(=O)O (some centres unmarked)
2. CC(C)C[C@H](NC(=O)[C@H](Cc1ccc(Cl)c(Cl)c1)NC(=O)OC(C)(C)C)C(=O)NC(CC(F)F)C(=O)C(=O)O (some centres unmarked)
3. CC(C)C[C@H](NC(=O)[C@H](Cc1ccccc1)NC(=O)OC(C)(C)C)C(=O)NC(CC(F)F)C(=O)C(=O)O (some centres unmarked)
4. CC(C)C[C@H](NC(=O)[C@H](CC(=O)O)NC(=O)OC(C)(C)C)C(=O)NC(CC(F)F)C(=O)C(=O)O (some centres unmarked)
5. CC(C)C[C@H](NC(=O)[C@H](Cc1cccc(Br)c1)NC(=O)OC(C)(C)C)C(=O)NC(CC(F)F)C(=O)C(=O)O (some centres unmarked)

[6.5, 5.8, 1.5, 1.6, 2.5]

Hello, I would appreciate it if you could give IC50 for each entry below.
1. CC(C)C[C@H](NC(=O)[C@H](C/C=C/c1ccccc1)NC(=O)OC(C)(C)C)C(=O)NC(CC(F)F)C(=O)C(=O)O (some centres unmarked)
2. CC(C)C[C@H](NC(=O)[C@H](C)NC(=O)OC(C)(C)C)C(=O)NC(CC(F)F)C(=O)C(=O)O (some centres unmarked)

1: 2.4; 2: 8.9
